experiment: PSAC antagonists in infected red cells, primary screen, cell-based, P. falciparum Indochina, OD700, 2 h (AID 1155);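 note: lysis reports solute entry through the parasite surface anion channel PSAC; channel blockers reduce lysis of infected cells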; details: P. falciparum Indochina infected erythrocytes, osmotic lysis OD700; higher = more signal, called active from +8 up or from −8 down
Below: a set of entries, each annotated with reported z-score.
Lab note: write the figure by itself, no unit.

Worked examples follow.
Reported z-score ( CC[C@H]1C2=C3C(CC[C@H]4C(OCc5ccc(F)cc5C(F)(F)F)OC[C@](C)([C@@H]34)N(C(=O)OC(C)(C)C)C2)C(COC(C)=O)C1COC(C)=O (some centres undefined) ) = -0.248

Reported z-score ( Cc1ccc(S[C@]2(C(=O)NC(C)C)CC(=O)N(Cc3ccccc3)[C@@H]2c2ccc(CO)cc2I)cc1 ) = 0.654

Next:
Reported z-score ( CC(C)(C)OC(=O)CC[C@@]1(C(N)=O)N=C(c2ccc(OCCCO)cc2)O[C@@H]1c1ccccc1CN=[N+]=[N-] ) = 5.68

Reported z-score ( O=C(O)C1=CC[C@H]2C(=O)N(c3ccccc3)C(=O)[C@@H]12 ) = 1.11
